These data points were gathered from patent US20230203162A1.

target.system: T1, recombinant human MSLN (purchased from Peprotech) (human, UniProt Q13421 296-598, limits assumed)
T1 construct: Bought protein; also called recombinant human mesothelin
test.name: SPR, MSLN immobilized on CM5, scFv as analyte, 1:1 Langmuir
metric.name: pKd
Reminder that pKd is minus the log10 of a molar concentration.

binder | metric.name | quantitative.result
anti-MSLN scFv PRO1783 (scFv, also called 54-01-G02-sc01) scFv: DIQMTQSPSSLSASVGDRVTITCQASQNIYSNLAWYQQKPGKAPKLLIYDASDLASGVPSRFSGSGSGTDFTLTISSLQPEDFATYYCQQVRSSSDIDNPFGTGTKVTVLGGGGGSGGGGSGGGGSGGGGSQVQLVESGGGLVQPGGSLRLSCAASGFSLSSYAMGWVRQAPGKGLEWIGYISTINNTYYASWAKGRFTISRDNSKNTVYLQMNSLRAEDTAVYYCAREIRSGWVDYGFSIWGQGTLVTVSS | pKd | 8.54
anti-MSLN scFv PRO1925 (scFv, also called 54-32-A07-sc02) scFv: ALQMTQSPSSLSASVGDRVTITCQASQSISNYLAWYQQKPGKPPKFLIYDASDLASGVSSRFSGSGSGTDFTLTISSLQPEDFATYYCQQVYDSNNVENVFGTGTKVTVLGGGGGSGGGGSGGGGSGGGGSQSQLVESGGGLVQPGGSLRLSCAVSGFSLSSYAMGWVRQAPGKGLEYIGYISKIGTTYYASWAKGRFTISKDNSKNTVYLQMNSLRAEDTAVYFCARGSSSGGYLDDGFDPWGQGTLVTVSS | pKd | 9.31
anti-MSLN scFv PRO2309 (scFv, VL/VH interdomain disulfide variant; also called 54-32-A07-sc09; PRO1925-S14R-T87R-T22K-DIS) scFv: ALQMTQSPSSLSARVGDRVTIKCQASQSISNYLAWYQQKPGKPPKFLIYDASDLASGVPSRFSGSGSGRDFTLTISSLQPEDFATYYCQQVYDSNNVENVFGCGTKVTVLGGGGGSGGGGSGGGGSGGGGSQSQLVESGGGLVQPGGSLRLSCAVSGFSLSSYAMGWVRQAPGKCLEYIGYISKIGTTYYASWAKGRFTISKDNSKNTVYLQMNSLRAEDTAVYFCARGSSSGGYLDDGFDPWGQGTLVTVSS | pKd | 9.35
anti-MSLN scFv PRO2306 (scFv, also called 54-32-A07-sc06; PRO1925-S14R-T87R-T22K) scFv: ALQMTQSPSSLSARVGDRVTIKCQASQSISNYLAWYQQKPGKPPKFLIYDASDLASGVPSRFSGSGSGRDFTLTISSLQPEDFATYYCQQVYDSNNVENVFGTGTKVTVLGGGGGSGGGGSGGGGSGGGGSQSQLVESGGGLVQPGGSLRLSCAVSGFSLSSYAMGWVRQAPGKGLEYIGYISKIGTTYYASWAKGRFTISKDNSKNTVYLQMNSLRAEDTAVYFCARGSSSGGYLDDGFDPWGQGTLVTVSS | pKd | 9.49
reference anti-MSLN scFv PRO1795 (scFv, also called 54-22-H03-sc01) scFv: DIQMTQSPSSLSASVGDRVTITCQASESIGNYLAWYQQKPGKAPKLLIYSASTLASGVPSRFSGSGSGTDFTLTISSLQPEDFATYYCQSTDYGDSYIFGTGTKVTVLGGGGGSGGGGSGGGGSGGGGSEVQLVESGGGLVQPGGSLRLSCAASGISVSNDYYMCWVRQAPGKGLEWIGCISTYIGNTHYASWAKGRFTISRDNSKNTVYLQMNSLRAEDTAVYYCAKNAGYPGYRYAIDLWGQGTLVTVSS | pKd | 9.49

What measured pKd goes with anti-MSLN scFv PRO1922 (scFv, also called 54-21-H03-sc01) scFv: DIQMTQSPSSLSASVGDRVTITCQASESIYSSLAWYQQKPGKAPKLLIYLASTLASGVPSRFSGSGSGTDFTLTISSLQPEDFATYYCQSTDYTTSTHRNSFGTGTKVTVLGGGGGSGGGGSGGGGSGGGGSEVQLVESGGGLVQPGGSLRLSCAASGFSFSTTYYMCWVRQAPGKGLEWIGCTNTASSVRTYYATWAKGRFTISRDNSKNTVYLQMNSLRAEDTAVYYCARDMGFADYALNLWGQGTLVTVSS ?
9.75
